Source listed as patent US9546157B2.

experiment description: Metabolic Stability (H = Human)
Type: in vitro ADME
property label: Metabolic Stability H

Completed entries (count: 6):
molecule	Metabolic Stability H
CC(NC(=O)N(C)C1CCN(C)CC1)c1ccc(-c2cnn(C)c2)c(Cl)c1Cl (stereo not shown)	High H High M
CC[C@H](NC(=O)N(C)C1CCN(C)CC1)c1ccc(-c2cnccn2)c(Cl)c1Cl	High H High M
C#Cc1ccc(C(C)NC(=O)N(C)C2CCN(C)CC2)c(Cl)c1Cl (stereo not shown) [Compound H0603]	High H High M
CC(NC(=O)N(C)C1CCN(C)CC1C)c1ccc(-c2cn[nH]c2)c(Cl)c1Cl (stereo not shown)	Medium H Medium M
CC(NC(=O)N(C)C1CCN(C)CC1)c1ccc(-c2cccs2)c(Cl)c1F (stereo not shown)	Medium H Medium M
CCC(NC(=O)N(C)C1CCN(C)CC1)c1ccc(-c2cncc(F)n2)c(Cl)c1Cl (stereo not shown)	Medium

// field: Metabolic Stability H; key: C[C@H](NC(=O)N(C)C1CCN(C)C1)c1ccc(-c2cnccn2)c(Cl)c1Cl (single isomer, unassigned) [Compound H0862] ; value = High

get_value(item= CN1CCC(N(C)C(=O)N[C@@H](c2ccc(-c3cnccn3)c(Cl)c2Cl)C(F)(F)F)CC1 , readout=Metabolic Stability H) returns Medium

Input CN1CCC(N(C)C(=O)NC(CC2CC2)c2ccc(-c3cncc(N)c3)c(Cl)c2Cl)CC1 (stereo not shown) . Output Metabolic Stability H: Medium

Given item CC(NC(=O)N(C)C1CCN(C)CC1)c1ccc(-c2cccs2)c(Cl)c1Cl (stereo not shown) [Compound H0536] , the value recorded as its Metabolic Stability H is Medium H Medium M

Consider CC(NC(=O)N(C)C1CCN(C)CC1)c1ccc(C#Cc2ccco2)c(Cl)c1Cl (stereo not shown) . Its measured Metabolic Stability H is High H High M

---

target system: GHSR1a (Homo sapiens)
Sequence (Q92847 whole entry): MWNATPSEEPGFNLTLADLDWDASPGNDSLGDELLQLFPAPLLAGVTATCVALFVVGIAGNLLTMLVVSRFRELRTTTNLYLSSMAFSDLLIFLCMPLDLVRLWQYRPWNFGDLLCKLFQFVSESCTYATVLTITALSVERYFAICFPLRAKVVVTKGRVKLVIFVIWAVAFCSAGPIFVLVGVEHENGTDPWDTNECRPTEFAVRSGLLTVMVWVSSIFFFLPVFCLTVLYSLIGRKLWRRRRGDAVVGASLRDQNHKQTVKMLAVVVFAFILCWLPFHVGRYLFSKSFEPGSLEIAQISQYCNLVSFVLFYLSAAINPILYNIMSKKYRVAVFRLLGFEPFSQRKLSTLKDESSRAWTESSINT
experiment description: Calcium FLIPR assay, GHSR-1a agonism
recorded conditions: HEK293/GHSR1a cells
property label: EC50

Example cases with answers are listed next.
compound	property label	value measured
CC(NC(=O)N(C)C1CCN(C)CC1)c1ccc(-c2cncs2)c2ccccc12 (centres unmarked)	EC50	> 30 µM
CC(NC(=O)N(C)C1CCN(C)CC1)c1ccc(-c2cnc(C(=O)N(C)C)cn2)c(Cl)c1Cl (centres unmarked)	EC50	0.009 µM
CC(NC(=O)N(C)C1CCN(C)CC1)c1ccc(-c2cncnc2)c(Cl)c1Cl (centres unmarked)	EC50	> 30 µM
CC(NC(=O)N(C)C1CCN(C)CC1)c1ccc(-c2cnc(N3CCN(C)CC3)c(C#N)c2)c(Cl)c1Cl (centres unmarked)	EC50	> 30 µM

Recorded EC50 (compound CCCN(C(=O)NC(C)c1ccc(-c2cnccn2)c(Cl)c1Cl)C1CCN(C)CC1 (centres unmarked) ): > 30 µM

According to the records, this compound CCC(NC(=O)N(CC)C1CCN(C)CC1)c1ccc(-c2cnccn2)c(Cl)c1Cl (centres unmarked) displays EC50 of > 30 µM

EC50 reported for this compound Cc1cc(-c2ccc(C(C)NC(=O)N(C)C3CCN(C)CC3)c(Cl)c2Cl)ncn1 (centres unmarked) : 0.09 µM

Looking up CC(NC(=O)N(C)C1CCC(F)(F)CC1)c1ccc(-c2cncnc2)c(Cl)c1Cl (centres unmarked) , I found its EC50 recorded as > 30 µM
